# assay_comment: Solubility of compound in pH 7.4 phosphate buffer
# Assay type: physicochemical
# cond: phosphate buffer
observed_property: solubility (µg/mL)

(I) Oc1ccc(-n2cc(-c3cc4ccccc4cn3)nn2)cc1
(II) O=C(NCc1cn(-c2ccc(O)c(F)c2)nn1)c1cc2cc(Cl)ccc2[nH]1
Could you check which of I and II has a smaller value for solubility? Refer to your chosen entry by its label in the reply.
I

---

# system_tested: Macrophage migration inhibitory factor (Homo sapiens)
# Sequence (P14174 whole entry): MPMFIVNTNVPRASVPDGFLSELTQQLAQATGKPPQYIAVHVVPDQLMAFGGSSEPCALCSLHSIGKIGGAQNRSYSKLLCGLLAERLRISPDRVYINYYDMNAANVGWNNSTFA
# assay_comment: Inhibition of C-terminal His-tagged recombinant human MIF expressed in Escherichia coli BL21 (DE3) using 4-HPP as substrate preincubated for 10 mins followed by substrate addition by UV absorption spectrum analysis
observed_property: IC50 (nM)

Answered examples (5):
[[record]]
compound_structure_string = "O=c1oc2cc(O)ccc2cc1-c1ccccc1"
data_value = 1760

[[record]]
compound_structure_string = "O=c1oc2cc(O)ccc2cc1-c1ccc(I)cc1"
data_value = 720

[[record]]
compound_structure_string = "O=c1oc2cc(O)ccc2cc1-c1cccc(Cl)c1"
data_value = 1930

[[record]]
compound_structure_string = "Cc1ccc(-c2cc3ccc(O)cc3oc2=O)cc1"
data_value = 690

[[record]]
compound_structure_string = "COc1ccc(-c2cc3ccc(O)cc3oc2=O)cc1"
data_value = 560


(P) O=c1oc2cc(O)ccc2cc1-c1ccc2ccccc2c1
(Q) O=c1oc2cc(O)ccc2cc1-c1ccc(Br)cc1
(R) CCOC(=O)c1cc2ccc(O)cc2oc1=O
(S) O=c1oc2cc(O)ccc2cc1-c1ccc(Cl)cc1
Parameters: sort_field (IC50), sort_dir (desc). Sort the labels as requested; that list is your answer.
R, P, S, Q

(A) COc1cccc(-c2cc3ccc(O)cc3oc2=O)c1
(B) COc1ccccc1-c1cc2ccc(O)cc2oc1=O
Could you check which of A and B has a smaller value for IC50? Refer to your chosen entry by its label in the reply.
A

(1) O=c1oc2cc(O)ccc2cc1-c1ccc(F)cc1
(2) O=c1oc2cc(O)ccc2cc1-c1ccccc1Cl
Could you check which of 1 and 2 has a smaller value for IC50? Refer to your chosen entry by its label in the reply.
1
(1: 2540 nM, 2: 19100 nM)
